Where do these numbers come from? They come from ChEMBL document CHEMBL3988442.

- Test system: Wolbachia pipientis
- assayText: Anti-Wolbachia Cell-Based Screen
- Format: functional
- Set-up: scale not given: in the data most compounds retested in dose-response had high values
- experimentalContext: 5 µM
Hit rate of the full screen: of about 48,000 compounds, about 13,000 (27%) showed an effect of 50% or more. The list shows a part of the results.
property: Percent Effect (%)
// units = %; emit number, no label

Q: Find the recorded Percent Effect belonging to COCC(=O)N1CCCCC1c1nc(N(C)C)ncc1-c1cc(C)no1 (stereo unspecified) and report it.
Ans: 90.99

Q: Now the compound Cc1csc(C2CCCCN2C(=O)COCc2nc(C)no2)n1 (stereo unspecified)
Ans: -7.815

Q: Now the compound Cc1cc(-c2cnc(N(C)C)nc2C2CCCCN2C(=O)C2CC2)on1 (stereo unspecified)
Ans: 124.3

Q: Now the compound CC(NC(=O)NCCCN(C)C)c1ccc2c(c1)CCC(=O)N2 (stereo unspecified)
Ans: 1.464

Q: Now the compound CC(NC(=O)NCCCn1ccnc1)c1ccc2c(c1)CCC(=O)N2 (stereo unspecified)
Ans: -10.33

Q: Now the compound Cc1cc(C2CCCN2C(=O)COc2ccc(CC#N)cc2)on1 (stereo unspecified)
Ans: -5.28

---

- Tested on: Wolbachia pipientis
- assayText: Anti-Wolbachia Cell-Based Screen
- Format: functional
- Set-up: scale not given: in the data most compounds retested in dose-response had high values
- experimentalContext: 5 µM
About 13,000 (27%) of roughly 48,000 compounds showed an effect of 50% or more. This is one part of the list.
I'd be grateful if you could share measured Percent Effect for these entries.

Q: Find the recorded Percent Effect belonging to CC(=O)N1C[C@@H](c2ccsc2)[C@@H]2CN(Cc3ccccc3C)CC[C@@H]21 and report it.
Ans: 115.6%

Q: Now the compound CC(=O)N1C[C@@H](c2ccsc2)[C@@H]2CN(Cc3ccccc3)CC[C@@H]21
Ans: 3.604%

Q: Now the compound CC(=O)N1C[C@@H](c2ccsc2)[C@@H]2CN(Cc3ccccc3Cl)CC[C@@H]21
Ans: 132.7%

Q: Now the compound N#CC(NC(=O)CCC1CCC1)c1cnn(-c2ccccc2)c1 (stereo not given)
Ans: 1.369%

Q: Now the compound CC(=O)N1C[C@@H](c2ccsc2)[C@@H]2CN(CC3CCCCC3)CC[C@@H]21
Ans: 84.31%

---

- System: Wolbachia pipientis
- assayText: Anti-Wolbachia Cell-Based Screen
- Type: functional
- Parameters: scale not given: in the data most compounds retested in dose-response had high values
- experimentalContext: 5 µM
Hit rate of the full screen: of about 48,000 compounds, about 13,000 (27%) showed an effect of 50% or more. The list shows a part of the results.
I'd be grateful if you could share measured Percent Effect for these entries.
// units = %; emit number, no label

Q: Form: Entry = COc1ccccc1OCc1cc(C(=O)N2CC=CC2C(C)C)n[nH]1 (configuration not stated) | System = Wolbachia pipientis | Percent Effect = ____
Ans: -7.003

Q: Now the molecule Cc1ccc(C(=O)N2CC(c3cccnc3)C2)cc1N1CCNC1=O
Ans: -5.741

Q: Now the molecule CC(C)(C)Nc1c(C2CCN(C(=O)C3CC3)CC2)nc2ccccn12
Ans: 95.08

Q: Now the molecule CCN(C)C(=O)c1ncn2c(C3CCN(S(C)(=O)=O)CC3)ccnc12
Ans: -14.84

Q: Now the molecule Cc1ccc(C(=O)N(C)Cc2ccc(Br)s2)c(=O)[nH]1
Ans: 139.4

Q: Now the molecule CC(C)c1cc(NCc2csc(C(C)C)n2)nc(N)n1
Ans: -18.23

Q: Now the molecule Cc1ccc(C(=O)N(C)Cc2c(C)noc2C)c(=O)[nH]1
Ans: 0.555

Q: Now the molecule O=C(c1ccccc1)C1CCN(Cc2cc3c(cc2O)CCC3)CC1
Ans: -3.001

Q: Now the molecule Cn1nc(C2CN(C(=O)c3ccncc3)C2)c2nccnc21
Ans: 104.9

Q: Now the molecule CC(=O)c1cc(CC(=O)N2CCCC2c2nc(C(C)C)no2)cs1 (configuration not stated)
Ans: -13.65

Q: Now the molecule COC(=O)Cc1cccc(NC(=O)Cc2ccon2)c1
Ans: 4.933

Q: Now the molecule CN1CCN(C(=O)CCc2cc(Br)cs2)CC1
Ans: -6.424

Q: Now the molecule CC(C)(C)Nc1c(C2CCN(C(=O)C(C)(C)C)CC2)nc2ccccn12
Ans: 124.8

Q: Now the molecule CCN(Cc1ccc2c(c1)OCO2)C(=O)c1ccc(C)[nH]c1=O
Ans: -8.548

Q: Now the molecule CC(C)(C)Nc1c(C2CCCN(C(=O)C3CC3)C2)nc2ccccn12.Cl (configuration not stated)
Ans: 97.63

Q: Now the molecule CNc1nc2c(c(C(=O)N3CCCC3)n1)CN(Cc1ccco1)CC2
Ans: 133.6

Q: Now the molecule CCC1C=CCN1C(=O)c1cc(COc2ccccc2OC)[nH]n1 (configuration not stated)
Ans: 105.4

Q: Now the molecule CNC(=O)N1CCC2(CC1)C(=O)N(C)c1c(F)cccc12
Ans: 16.38

Q: Now the molecule COCCc1ncc(CN2C[C@@H](C(=O)O)[C@H](C(C)C)C2)cn1
Ans: -10.49

Q: Now the molecule OCC(O)CN1CCc2onc(-c3ccc(C(F)(F)F)cc3)c2C1 (configuration not stated)
Ans: -7.135

Q: Now the molecule Cc1nc(N2CCCC2)nc2c1CCN(Cc1ccco1)CC2.O=C(O)C(F)(F)F
Ans: -6.041

Q: Now the molecule CN(C)C(=O)NCc1cc(=O)n2c(n1)CN(Cc1ccoc1)CCC2.O=C(O)C(F)(F)F
Ans: 87.23

Q: Now the molecule COCCN1CCCC(O)(CN2CCN(c3cc(C)ccn3)CC2)C1=O (configuration not stated)
Ans: -13.95

Q: Now the molecule CC(CNC(=O)c1cc(-n2cccn2)ccn1)Cn1ccnc1 (configuration not stated)
Ans: -5.602

Q: Now the molecule Cc1ccc(CN2CCCn3c(nc(Cn4cncn4)cc3=O)C2)s1
Ans: -3.936

Q: Now the molecule COc1ccccc1OCc1cc(C(=O)N2CC(O)C2)n[nH]1
Ans: -12.52

Q: Now the molecule Cc1cc(C)n(CCC2CC(=O)Nc3cc(O)c(C)cc32)n1 (configuration not stated)
Ans: -2.617

Q: Now the molecule O=C(N1CCCC(n2cncn2)C1)C1(c2ccccc2F)CCCC1 (configuration not stated)
Ans: 104.1

Q: Now the molecule CC(C)(C)C(=O)N1CCC(c2nc(O)cc(-c3ccccn3)n2)CC1
Ans: -20.96

Q: Now the molecule Cn1nc(C2CN(C(=O)c3cccnc3)C2)c2nccnc21
Ans: 106.4

Q: Now the molecule CN(CC(=O)N(C)C1CCN(CC2CCOC2)CC1)c1ccccc1 (configuration not stated)
Ans: -6.754

Q: Now the molecule O=C(N1CCC(Oc2ccncc2)C1)C1(c2ccccc2F)CC1 (configuration not stated)
Ans: -11.14

Q: Now the molecule Cn1nc(C2CN(S(C)(=O)=O)C2)c2nccnc21
Ans: 134.2

Q: Now the molecule CCCn1nc2c(cc1=O)CN(Cc1cc(C)no1)CC2
Ans: 7.336

Q: Now the molecule COc1cc(C)c(C(C)NC(=O)Nc2nnc(C)s2)cc1OC (configuration not stated)
Ans: -2.297

Q: Now the molecule CC(C)Oc1cccc(F)c1C(C(=O)O)N(C)Cc1ccon1 (configuration not stated)
Ans: -4.815

Q: Now the molecule Cc1cccn2c(NC(C)(C)C)c(C3CCN(C(=O)C4CC4)CC3)nc12
Ans: 138

Q: Now the molecule Fc1ccc(CN2CCCC2Cn2cncn2)c2ncccc12 (configuration not stated)
Ans: 11.89

Q: Now the molecule c1csc(-c2nnc(CSCCN3CCOCC3)o2)c1
Ans: 0.2217

Q: Now the molecule COCC(=O)NCc1cc(=O)n2c(n1)CN(Cc1ccoc1)CCC2
Ans: 84.57

Q: Now the molecule CC(C)(C(=O)NCCCc1nc2ccccc2[nH]1)n1cc(Cl)cn1
Ans: -7.293

Q: Now the molecule C[S+]([O-])c1nncn1CC(=O)c1ccc(Br)cc1 (configuration not stated)
Ans: -5.183

Q: Now the molecule CCC(CNC1CCN(C(=O)N(C)C)CC1)Oc1ccccc1C (configuration not stated)
Ans: 14.11

Q: Now the molecule COC(=O)NCC(=O)N(C)Cc1csc(C)n1
Ans: 0.6719

Q: Now the molecule CNc1nc2c(c(C(=O)N3CCCC3)n1)CN(Cc1nccn1C)CC2
Ans: 14.28

Q: Now the molecule Cc1cc(CN2CCc3nn(C)c(=O)cc3C2)on1
Ans: 13.66

Q: Now the molecule O=C(c1ccncc1)N1C[C@@H]2CC[C@H](C1)N(C(=O)C1CCCC1)C2
Ans: 23.43
